B1: glmS ribozyme (parent)
chain: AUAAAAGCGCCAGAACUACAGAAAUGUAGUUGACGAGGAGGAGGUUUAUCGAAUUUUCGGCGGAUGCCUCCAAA

# Variants of: B1
# assay-summary: self-cleavage kobs at 10000 uM GlcN6P; higher = faster cleavage; RNA array
# particulars: with glucosamine-6-phosphate
This sample holds only a part of the variants without activity.
measured-property: self-cleavage kobs at 10000 uM GlcN6P (s⁻¹)
Give bare numbers, in s⁻¹.

Here's what some known entries look like.
# mutant-code, measured-property, value-units, experimental-value
records = [
    ("A12G U55G", "self-cleavage kobs at 10000 uM GlcN6P", "s⁻¹", 0.000815),
    ("A14U A48C U55A", "self-cleavage kobs at 10000 uM GlcN6P", "s⁻¹", "3.3e-05"),
    ("U45C U55G", "self-cleavage kobs at 10000 uM GlcN6P", "s⁻¹", 0.00283),
    ("G29C U46C", "self-cleavage kobs at 10000 uM GlcN6P", "s⁻¹", "8.84e-05"),
    ("A39U G41U U46A", "self-cleavage kobs at 10000 uM GlcN6P", "s⁻¹", 0.000135),
]

Hi there! I need self-cleavage kobs at 10000 uM GlcN6P for each item below, if you can.
1. U46C C67U
2. G29C C68U
3. C16U G32A U57C
4. A48G C70G
5. G13A C67A
6. U47G A52U U69G
7. A53U C68U

[reply]
0.000426
0.000368
2.6e-05
5.25e-05
0.000181
3.79e-05
0.00507

For each of the variants below, note its self-cleavage kobs at 10000 uM GlcN6P.
1. A36G C70U
2. U45G G59U
3. G13A A14U C50G C68U
4. U55A C70A

[reply]
1: 2.96e-05; 2: 4.05e-05; 3: 0.000103; 4: 0.000114
